- TEST TARGET: human recombinant PDE4 (Homo sapiens, UniProt Q07343)
- Sequence (Q07343 1-564 isoform Q07343-2): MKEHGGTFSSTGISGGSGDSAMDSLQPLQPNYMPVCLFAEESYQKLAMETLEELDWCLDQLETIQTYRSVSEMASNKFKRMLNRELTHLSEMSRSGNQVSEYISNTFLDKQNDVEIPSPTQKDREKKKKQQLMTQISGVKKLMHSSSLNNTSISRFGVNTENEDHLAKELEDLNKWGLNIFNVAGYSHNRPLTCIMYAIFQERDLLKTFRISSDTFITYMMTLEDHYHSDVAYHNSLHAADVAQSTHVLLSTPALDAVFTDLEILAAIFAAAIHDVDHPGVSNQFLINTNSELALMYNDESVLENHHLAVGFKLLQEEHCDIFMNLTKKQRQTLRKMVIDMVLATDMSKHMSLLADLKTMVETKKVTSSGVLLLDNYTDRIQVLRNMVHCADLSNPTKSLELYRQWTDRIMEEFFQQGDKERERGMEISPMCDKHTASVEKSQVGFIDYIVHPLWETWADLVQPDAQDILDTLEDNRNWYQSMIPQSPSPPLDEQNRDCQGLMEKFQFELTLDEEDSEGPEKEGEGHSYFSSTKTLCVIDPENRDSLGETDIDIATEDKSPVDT
- EXPERIMENT NOTES: Inhibition of human recombinant PDE4 (IC50)
PROPERTY MEASURED: IC50 (nM)
All answers are understood in nM, so give the number only.

>  <COMPOUND>
CCOC(=O)c1cc(-c2ccccc2)n(-c2cccc(C(C)=O)c2)c1C [Example 8]

>  <TEST TARGET>
human recombinant PDE4 (Homo sapiens, UniProt Q07343)

>  <VALUE OBSERVED>
590

$$$$
>  <COMPOUND>
CCOC(=O)c1cc(-c2ccccc2)n(-c2cccc(C)c2)c1C [Example 5]

>  <TEST TARGET>
human recombinant PDE4 (Homo sapiens, UniProt Q07343)

>  <VALUE OBSERVED>
6100

$$$$

Now look at this one.
Quick check: IC50 on human recombinant PDE4 (Homo sapiens, UniProt Q07343), item CCOC(=O)c1cc(C)n(-c2cccc([N+](=O)[O-])c2)c1-c1ccccc1 [Example 39] ? 200

The reported measurements were obtained from patent US6372777B1.
